Attribute: self-cleavage
B1: CPEB3 Ribozyme (parent)
chain: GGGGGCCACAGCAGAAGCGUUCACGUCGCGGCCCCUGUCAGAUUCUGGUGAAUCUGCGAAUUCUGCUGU

Variants of: B1
Test: self-cleavage, relative activity (ratio to wild type); higher = more cleavage; co-transcriptional
MEASUREMENT LABEL: self-cleavage

>  <VARIANT STRING>
G2U G25C

>  <MEASUREMENT LABEL>
self-cleavage

>  <OBSERVED VALUE>
0.0157

$$$$
>  <VARIANT STRING>
U36G A59U

>  <MEASUREMENT LABEL>
self-cleavage

>  <OBSERVED VALUE>
0.189

$$$$
>  <VARIANT STRING>
G17C U69G

>  <MEASUREMENT LABEL>
self-cleavage

>  <OBSERVED VALUE>
0.303

$$$$
>  <VARIANT STRING>
A13G U26G

>  <MEASUREMENT LABEL>
self-cleavage

>  <OBSERVED VALUE>
0.935

$$$$
>  <VARIANT STRING>
C35G G37C

>  <MEASUREMENT LABEL>
self-cleavage

>  <OBSERVED VALUE>
0.206

$$$$
>  <VARIANT STRING>
C12U A16U

>  <MEASUREMENT LABEL>
self-cleavage

>  <OBSERVED VALUE>
0.655

$$$$
>  <VARIANT STRING>
C18U G37A

>  <MEASUREMENT LABEL>
self-cleavage

>  <OBSERVED VALUE>
0.193

$$$$
>  <VARIANT STRING>
C34A G48U

>  <MEASUREMENT LABEL>
self-cleavage

>  <OBSERVED VALUE>
0.877

$$$$
>  <VARIANT STRING>
U20A A59G

>  <MEASUREMENT LABEL>
self-cleavage

>  <OBSERVED VALUE>
0.125

$$$$
>  <VARIANT STRING>
G5A U69G

>  <MEASUREMENT LABEL>
self-cleavage

>  <OBSERVED VALUE>
1.03

$$$$
>  <VARIANT STRING>
U55G A60C

>  <MEASUREMENT LABEL>
self-cleavage

>  <OBSERVED VALUE>
0.296

$$$$

The reported measurements were obtained from the RNAGym collection of RNA variant scans (doi:10.7554/elife.80360).
